system: SF-539 CNS; assay: NCI-60 one-dose screen, 48 h; conditions: 10 µM
The panel holds about 83,000 compounds, 20% with a hit somewhere; the sample as a whole holds those more often. Activity calls are given as the source filed them. How the source made its calls: active means growth percent below 10; inactive means the rest.
Tick one outcome: active, inactive

Worked cases, answers included:
- molecule: "COc1ccccc1CNCCCN1C(=O)c2ccc3c4c(ccc(c24)C1=O)C(=O)N(CCCNCCNCCCN)C3=O"
  target.or.test.system: "SF-539 CNS"
  assigned.class: "inactive"
- molecule: "O=S(=O)(O)C1(O)CCCCC1"
  target.or.test.system: "SF-539 CNS"
  assigned.class: "inactive"

Task: Call for entry CC(=O)Oc1c(C)c(C)c2c(c1C)CCC(C)(CC(=O)OCCCCCCCCCCC[P+](c1ccccc1)(c1ccccc1)c1ccccc1)O2 (stereo not given) :
Result: active

Task: Call for entry "O=C(O)CCCN1C(=O)NC2(C1=O)c1ccccc1-c1ccccc12" :
Result: inactive

Task: Call for entry "CCCCNC(=O)Oc1ccc(/C(=C(\C)c2ccc(OC)cc2)c2ccc(OCCN3CCCCC3)cc2)cc1" :
Result: active

Task: Call for entry "COC(=O)c1cnc2c(c1)Oc1ccc(Cl)cc1-c1cc(C)nn1-2" :
Result: inactive

Task: Call for entry "COc1ccc(/C=C2\SC(=S)N(CCCN3CCOCC3)C2=O)c(OC)c1" :
Result: inactive

Task: Call for entry O=C(c1ccccc1)C(Nc1ccccc1)c1ccccc1 (stereo not given) :
Result: inactive

Task: Call for entry "COc1ccc(/C(=C/c2cc(OC)c(OC)cc2[N+](=O)[O-])C(=O)O)cc1" :
Result: inactive

Task: Call for entry "CCOC(=S)Sc1ccc([N+](=O)[O-])cc1[N+](=O)[O-]" :
Result: inactive

----------
test system: SK-OV-3 ovarian; experiment: NCI-60 one-dose screen, 48 h (100 = growth as untreated, 0 = no growth, -100 = all killed); conditions: 10 µM
Compounds without any hit were thinned out: in the full panel of roughly 83,000, 20% have a hit.
readout.name: growth (%)
The reply should be a number in %, with the unit left off.

- compound: "CCc1ccc(-c2nnc(COc3ccc(-c4nc5cc(Cl)c(Cl)cc5[nH]4)cc3OC)o2)cc1"
  unit.descriptor: "%"
  growth: 96.9
- compound: "COc1cc(OC)cc(-c2ccc(-c3ccc(C(=N)N)cn3)o2)c1"
  unit.descriptor: "%"
  growth: 31.2
- compound: "COc1ccc(C2C=C(c3ccc(Cl)cc3)N=C3SC=CN32)c(Br)c1 (stereo not given)"
  unit.descriptor: "%"
  growth: 117
- compound: "COC(=O)CCCCCCCCC(C)c1ccc(C(C)=O)cc1 (stereo not given)"
  unit.descriptor: "%"
  growth: 102

Task: # input compound: "O=C(NNC(=O)c1ccncc1)Nc1ccc([N+](=O)[O-])cc1" ; wanted: its growth
Result: 104

----------
test system: COLO 205 colon; experiment: NCI-60 one-dose screen, 48 h; conditions: 10 µM
About 83,000 compounds went through this panel and 20% of them were active in at least one assay; those are over-represented in the sample as a whole. The source made the active and inactive calls. How the source made its calls: active means growth percent below 10; inactive means the rest.
Tick one outcome: T = active, F = inactive

- molecule: "c1ccc(C2CCCCC2)c(OCCCCCN2CCNCC2)c1"
  assigned.class: "T"

Task: Call for entry "COc1ccccc1NC1=C(N2CCCCC2)C(=O)c2ccccc2C1=O" :
Result: F

Task: Call for entry "O=C(COCc1c(-c2ccccc2)no[n+]1[O-])Nc1nc(-c2ccc(Cl)cc2)cs1" :
Result: F

Task: Call for entry "C[C@@H]1C(=O)N(C[C@H](Cc2ccccc2)NC(=O)OCc2ccccc2)[C@]1(Cc1ccccc1)C(=O)OCc1ccccc1" :
Result: T

Task: Call for entry O=C(c1ccccc1)C(Sc1ccccc1)c1ccccc1 (stereo unspecified) :
Result: F

Task: Call for entry "COc1cc(CSc2nc3ccc(Cl)cc3c(=O)n2-c2ccccc2)cc(OC)c1OC" :
Result: F

Task: Call for entry "Cc1nn2c(/C=C3/C(=O)Nc4ccc(Cl)cc43)c(-c3ccccc3)nc2s1" :
Result: F

Task: Call for entry NC1CCC(Nc2nc(NCc3ccc(-c4ccccc4O)nc3)c3ncn(C4CCCC4)c3n2)CC1 (stereo unspecified) :
Result: T

Task: Call for entry "COc1ccc2c(=O)cc(C(Cl)(Cl)Cl)oc2c1" :
Result: T

Task: Call for entry CC(=O)OC1Oc2ccccc2-c2oc(=O)c(-c3cc(=O)oc4cc(O)ccc34)cc21 (stereo unspecified) :
Result: F

----------
test system: OVCAR-8 ovarian; experiment: NCI-60 one-dose screen, 48 h (100 = growth as untreated, 0 = no growth, -100 = all killed); settings: 10 µM
Compounds without any hit were thinned out: in the full panel of roughly 83,000, 20% have a hit.
I'd appreciate it if you could label each record using growth and these ranges: lower band = under 20%, central band = from 20% up to 80%, upper band = 80% and over

Worked cases, answers included:
- molecule: "N#CC1C=Cc2c(ccc3ccccc23)N1C(=O)c1ccccc1 (stereo not given)"
  assigned.class: "central band"
- molecule: "COc1ccc(C2=Cc3ccc(OC(C)=O)cc3OC2)cc1"
  assigned.class: "upper band"
- molecule: "COCCOC(=O)NC(=O)Nc1ccc(/C(=N/O)c2ccc(Cl)cc2)cc1"
  assigned.class: "lower band"
- molecule: "COc1cc(C2C=C(c3ccc(Cl)c(Cl)c3)N=C3SC(C)=CN32)cc(OC)c1OC (stereo not given)"
  assigned.class: "central band"
- molecule: "CCOC(=O)Cn1nnc(-c2ccc(OCc3ccccc3F)cc2)n1"
  assigned.class: "upper band"
- molecule: "Cc1nc(Nc2nc3ccccc3o2)nc(-c2cccc([N+](=O)[O-])c2)c1C(=O)Nc1ccc(F)c(Cl)c1"
  assigned.class: "lower band"

Attention now shifts to the item below.
Task: Entry "CCOC(=O)c1c(C(F)(F)F)n([O-])c2ccc(OC)cc2[n+]1=O" belongs to which category?
Result: central band

----------
system: TK-10 renal; assay: NCI-60 one-dose screen, 48 h (100 = growth as untreated, 0 = no growth, -100 = all killed); conditions: 10 µM
About 83,000 compounds went through this panel and 20% of them were active in at least one assay; those are over-represented in the sample as a whole. Activity calls are given as the source filed them. Rule for the calls: active = growth percent below 10; inactive = the rest.
Recorded growth by entry

Task: # input molecule: "COc1ccc(-c2[nH]ncc2-c2cc(OC)c(OC)c(OC)c2)cc1" ; wanted: its growth
Result: 44.7% (inactive)

----------
tested on: SN12C renal; assay: NCI-60 one-dose screen, 48 h; conditions: 10 µM
About 83,000 compounds went through this panel and 20% of them were active in at least one assay; those are over-represented in the sample as a whole. The source made the active and inactive calls. How the source made its calls: active means growth percent below 10; inactive means the rest.
Tick one outcome: active, inactive

- compound: "Cc1cn(C(=O)/C(Cl)=C(/Cl)C(=O)O)c2ccccc12"
  assigned.class: "inactive"
- compound: "C=CCn1c(C)nc2cc(Nc3nc(Nc4ccc5nc(C)n(CC=C)c5c4)c4ccccc4n3)ccc21"
  assigned.class: "active"
- compound: "Nc1nc2c(ncn2C2OC3COP(=O)(O)OC4C(COP(=O)(O)OC2C3O)OC(n2cnc3c(N)ncnc32)C4O)c(=O)[nH]1 (stereo not given)"
  assigned.class: "inactive"
- compound: "COc1cc(CSc2nc3ccc(Cl)cc3c(=O)n2Cc2ccccc2)cc(OC)c1OC"
  assigned.class: "inactive"

Attention now shifts to the item below.
Task: Call for entry "COc1ccc(-c2nnc(N3CCN(C(=O)CN4CCN(c5ccc(Cl)cc5)CC4)CC3)nc2-c2ccc(OC)cc2)cc1" :
Result: inactive

----------
Recorded growth by entry
test system: COLO 205 colon; test: NCI-60 one-dose screen, 48 h (100 = growth as untreated, 0 = no growth, -100 = all killed); conditions: 10 µM
This is part of a sample that, as a whole, favours compounds with a hit. Of some 83,000 tested, about 20% had one in any assay.
The reply should be a number in %, with the unit left off.

Example cases with answers are listed next.
- compound: "Nc1nsc(C(=O)c2ccc(O)cc2)n1"
  growth / %: 106
- compound: "COc1c(C)c(C)c(OC)c2c1[nH]c(=O)c1c3cccnc3cn21"
  growth / %: 118
- compound: "COc1cccc(C(=O)NNc2nc(N3CCN(C4CCCCC4)CC3)nc(N3CCN(C(c4ccccc4)c4ccccc4)CC3)n2)c1"
  growth / %: 14.2

Task: # input compound: "CCc1cc2n(n1)-c1ncc(C(=O)OC)cc1Oc1ccccc1-2" ; wanted: its growth
Result: 116

Task: # input compound: "FC(F)(F)c1ccc(-c2nc(-c3nc4cc(Cl)c(Cl)cc4[nH]3)c3ccccn23)cc1" ; wanted: its growth
Result: 87.1

Task: # input compound: "Cc1ccc2c(c1)-c1cc(C)nn1-c1ccc(C#N)cc1O2" ; wanted: its growth
Result: 66.3

Task: # input compound: COc1cccc(C(=O)N(c2ccc(F)c(F)c2)C(C(=O)NC(C)(C)C)c2cc3c(C)cc(C)cc3nc2Cl)c1 (stereo not given) ; wanted: its growth
Result: 70.2

Task: # input compound: "NCCNc1ccc2cc(-c3nc4ccccc4[nH]3)c(=O)oc2c1" ; wanted: its growth
Result: 104

Task: # input compound: "O=C1/C(=C/c2ccc(O)cc2O)N=C2SCCCN12" ; wanted: its growth
Result: 106

Task: # input compound: "COc1ccc(S(=O)(=O)Nc2cc(/C=C\c3cc(OC)c(OC)c(OC)c3)ccc2OC)cc1" ; wanted: its growth
Result: -59.2
